Target: intracellular GCN2 (phosphorylation of the GCN2 substrate eIF2α) (Homo sapiens, UniProt Q9P2K8)
Sequence (Q9P2K8 whole entry): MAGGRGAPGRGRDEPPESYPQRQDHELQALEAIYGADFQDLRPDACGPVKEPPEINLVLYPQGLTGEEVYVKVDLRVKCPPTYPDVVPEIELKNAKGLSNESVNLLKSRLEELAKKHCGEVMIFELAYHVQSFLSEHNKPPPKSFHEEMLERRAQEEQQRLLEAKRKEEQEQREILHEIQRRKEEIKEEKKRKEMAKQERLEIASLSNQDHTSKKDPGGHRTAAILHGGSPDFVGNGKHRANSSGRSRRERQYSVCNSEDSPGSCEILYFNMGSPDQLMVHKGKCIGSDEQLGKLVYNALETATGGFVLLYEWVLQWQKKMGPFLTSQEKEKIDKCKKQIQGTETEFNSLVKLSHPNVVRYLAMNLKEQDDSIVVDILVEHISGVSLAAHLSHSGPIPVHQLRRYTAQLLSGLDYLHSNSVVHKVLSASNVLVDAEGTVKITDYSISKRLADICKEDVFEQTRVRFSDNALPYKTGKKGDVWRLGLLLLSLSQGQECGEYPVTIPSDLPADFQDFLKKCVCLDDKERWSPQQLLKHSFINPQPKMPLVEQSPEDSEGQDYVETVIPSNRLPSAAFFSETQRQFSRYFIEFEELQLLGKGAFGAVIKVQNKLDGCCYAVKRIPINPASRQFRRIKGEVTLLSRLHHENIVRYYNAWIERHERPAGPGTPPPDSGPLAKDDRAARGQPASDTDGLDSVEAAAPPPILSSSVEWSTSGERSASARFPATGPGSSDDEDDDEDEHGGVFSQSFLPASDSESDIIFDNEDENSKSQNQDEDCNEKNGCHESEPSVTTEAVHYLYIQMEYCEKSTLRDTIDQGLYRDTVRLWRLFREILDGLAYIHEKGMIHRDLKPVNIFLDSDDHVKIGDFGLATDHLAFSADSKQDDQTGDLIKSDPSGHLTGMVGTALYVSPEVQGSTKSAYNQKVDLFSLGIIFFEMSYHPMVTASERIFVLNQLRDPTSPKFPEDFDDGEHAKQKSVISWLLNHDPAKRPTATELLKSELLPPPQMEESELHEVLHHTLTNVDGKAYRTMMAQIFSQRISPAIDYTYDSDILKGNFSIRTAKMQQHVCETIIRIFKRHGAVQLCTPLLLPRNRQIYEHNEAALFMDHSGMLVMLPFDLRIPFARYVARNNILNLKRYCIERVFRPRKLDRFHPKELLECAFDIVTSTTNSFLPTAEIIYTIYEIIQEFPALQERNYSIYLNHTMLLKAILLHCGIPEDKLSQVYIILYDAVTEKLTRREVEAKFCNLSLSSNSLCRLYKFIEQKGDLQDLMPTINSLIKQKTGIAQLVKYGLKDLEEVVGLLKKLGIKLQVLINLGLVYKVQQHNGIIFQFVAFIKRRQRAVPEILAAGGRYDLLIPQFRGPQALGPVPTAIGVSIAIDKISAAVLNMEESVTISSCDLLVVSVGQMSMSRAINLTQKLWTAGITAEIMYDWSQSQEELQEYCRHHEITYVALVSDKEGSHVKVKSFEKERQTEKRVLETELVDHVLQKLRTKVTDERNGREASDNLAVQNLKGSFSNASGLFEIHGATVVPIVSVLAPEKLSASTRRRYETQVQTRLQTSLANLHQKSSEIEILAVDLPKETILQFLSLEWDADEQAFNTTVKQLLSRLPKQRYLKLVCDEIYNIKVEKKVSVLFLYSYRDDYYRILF
Assay: GCN2 cellular inhibition assay (AlphaScreen SureFire P-eIF2α Ser51, borrelidin-treated U2OS cells)
Assay type: cell-based
Details: compounds of Formula II; biomarker assay, phosphorylated eIF2α Ser51 in borrelidin-treated U2OS cells
pIC50: −log10 of the molar value.
measured attribute: pIC50

query: # input compound: CS(=O)(=O)CC1CCN(c2cc(-c3cnc4ccc(C(F)F)nn34)ncn2)C1 (stereo not drawn) [II-396] ; wanted: its pIC50
result: 5.30 to 6.30

query: Looking for the measured pIC50 of CS(=O)(=O)NCC1CCCN(c2cc(-c3cnc4ccc(C(F)F)nn34)cnc2C#N)C1 (stereo not drawn) [II-117] , can you help?
result: 5.30 to 6.30

query: Look up pIC50: NC(=O)CC1CCCN(c2cc(-c3cnc4ccc(C(F)F)nn34)ccn2)C1 (stereo not drawn) [II-145]
result: 5.30 to 6.30

query: I have this compound here, CS(=O)(=O)NCC1CC(O)CN(c2cc(-c3cnc4ccc(C(F)F)nn34)ncn2)C1 (stereo not drawn) [II-13] , and I need its recorded pIC50.
result: 5.30 to 6.30

query: Bench note: what pIC50 did FC(F)c1ccc2ncc(-c3cc(N4CCOCC4)ncn3)n2n1 [II-251] show?
result: < 5.30

query: # query: pIC50 of entry CS(=O)(=O)N1CC2(CCCN(c3cc(-c4cnc5ccc(C(F)F)nn45)ncn3)C2)C1 [II-281]
result: > 6.30

query: I'd like to know its pIC50. The compound in question is CC(=O)N1CCN(c2cc(-c3cnc4ccc(CO)nn34)ccn2)CC1 [II-185]
result: < 5.30

----------
Target: intracellular GCN2 (phosphorylation of the GCN2 substrate eIF2α) (Homo sapiens)
Test: GCN2 cellular inhibition assay (AlphaScreen SureFire P-eIF2α Ser51, borrelidin-treated U2OS cells)
Type: cell-based
Settings: compounds of Formula IV; biomarker assay, phosphorylated eIF2α Ser51 in borrelidin-treated U2OS cells
pIC50: −log10 of the molar value.
measured attribute: pIC50

CC1C(c2cn[nH]c2)OCCN1c1ccnc(-c2cnc3cnc(Cl)cn23)n1 (single isomer, unassigned) [IV-245]: < 5.30
NS(=O)(=O)N[C@@H]1CCCN(c2ccnc(-c3cnc4cnc(C(F)F)cn34)n2)C1 [IV-181]: < 5.30
CC1CN(c2ccnc(-c3cnc4cnc(Br)cn34)n2)C(C)C(c2cn[nH]c2)N1 (centres unmarked) [IV-279]: > 6.30
CNC(=O)C1CCCN(c2ccnc(-c3cnc4cnc(C(F)F)cn34)n2)C1 (centres unmarked) [IV-44]: < 5.30
Cc1n[nH]cc1[C@@H]1CN(c2ccnc(-c3cnc4cnc(C(F)(F)F)cn34)n2)C[C@H](C)O1 (stereo in doubt) [IV-763]: > 6.30
CC1CN(c2ccnc(-c3cnc4cnc(C(F)(F)F)cn34)n2)CC(c2cn[nH]c2)N1C (centres unmarked) [IV-195]: 5.30 to 6.30
CC1CN(c2ncc(F)c(-c3cnc4cnc(C(F)(F)F)cn34)n2)CC(c2cn[nH]c2)N1 (centres unmarked) [IV-422]: < 5.30
C[C@H]1C[C@@H](c2c[nH]nc2F)CN(c2ccnc(-c3cnc4cnc(C(F)(F)F)cn34)n2)C1 [IV-767]: > 6.30

query: Which pIC50 value belongs to O=C1CCC2CN(c3ccnc(-c4cnc5cnc(C(F)F)cn45)n3)CCN12 (centres unmarked) [IV-98] ?
result: < 5.30

query: // pIC50 lookup, key: FC(F)c1cn2c(-c3nccc(N4CCOC(c5cn[nH]c5)C4)n3)cnc2cn1 (centres unmarked) [IV-28]
result: 5.30 to 6.30

query: Need pIC50, item NS(=O)(=O)C1CCCN(c2ccnc(-c3cnc4cnc(C(F)F)cn34)n2)C1 (centres unmarked) [IV-177]
result: < 5.30
